Source of measurements: PubChem BioAssay AID1159580

Exercise: for every item that follows, state its recorded normalized growth.
# assay explanation: chemical genetic growth profiling, strain panel (AID 1159580);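 note: tested at 20 µM; growth read once vehicle control cultures reached saturation at 30 °C; 1 = growth at the plate median or of vehicle wells; lower values mean less growth of the strain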
# settings: S. cerevisiae deletion strains, growth OD, locus YMR231W, strain pep5, hits give low values
About 2,000 (36%) of roughly 5,500 compounds were called active. Roughly 18% stayed inconclusive and do not appear here. The list shows a part of the results.
Answer with a bare number; do not write a unit.

Report normalized growth for CCN(CC)CCNC(=O)c1cc(Cl)c(N)cc1OC please. 0.992

Give the measured normalized growth of OCCN1CCN(CCCN2c3ccccc3Sc3ccc(C(F)(F)F)cc32)CC1 . 0.0843

Bench note: what normalized growth did Cc1onc(-c2ccccc2)c1C(=O)NC1C(=O)N2[C@@H]1SC(C)(C)[C@@H]2C(=O)O (stereo not given in full) show? 1.02

Can you share its normalized growth? I mean this molecule: CN1CCN(CCCN2c3ccccc3Sc3ccc(C(F)(F)F)cc32)CC1 0.0666

Data request, read-out normalized growth, for COC(=O)C[C@H]1C(C)(C)[C@@H](O)[C@@H]2CC3=C4C=C(OC)O[C@@H](c5ccoc5)[C@]4(C)CCC3[C@@]1(C)C2=O (stereo not given in full) 0.997

Fill in the blank: the reported normalized growth of CCc1cccc2c3c([nH]c12)C(CC)(CC(=O)O)OCC3 (stereo not given) is ____. 0.967

Requested field: normalized growth. Item: Cc1onc(-c2ccccc2Cl)c1C(=O)N[C@@H]1C(=O)N2[C@@H]1SC(C)(C)[C@@H]2C(=O)O 1.02

I would be grateful if you could share the reported normalized growth for O=C(CCBr)N1CCN(C(=O)CCBr)CC1 . 1.03

Sample CCOC([O-])=Nc1c[n+](N2CCOCC2)no1 — what was its normalized growth? 0.994

If you can, please state the reported normalized growth value of COc1c2c(cc3c1OCO3)C13C=C[C@H](OC)CC1N(C2)CC3O (stereo not given in full) . 0.993

What does the record list as normalized growth for CN1CCN(CCC=C2c3ccccc3Sc3ccc(S(=O)(=O)N(C)C)cc32)CC1 ? 1.02

For the molecule shown here, CN1C(=O)CCS(=O)(=O)C1c1ccc(Cl)cc1 (stereo not given) , give the reported normalized growth. 0.987

Given the entry NC1C[C@H]1c1ccccc1 (stereo not given in full) , report its measured normalized growth. 0.975

Data request, read-out normalized growth, for C=C(C)[C@@H]1CC[C@]2(CO)CC[C@]3(C)[C@H](CCC4[C@@]5(C)CC[C@H](O)C(C)(C)C5CC[C@]43C)C12 (stereo not given in full) 1.01

Need normalized growth, item CO[C@@]1(NC(=O)Cc2cccs2)C(=O)N2C(C(=O)O)=C(COC(N)=O)CS[C@@H]21 0.98

---

# assay explanation: chemical genetic growth profiling, strain panel (AID 1159580);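 note: tested at 20 µM; growth read once vehicle control cultures reached saturation at 30 °C; 1 = growth at the plate median or of vehicle wells; lower values mean less growth of the strain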
# settings: S. cerevisiae deletion strains, growth OD, locus YDR502C, strain sam2, hits give low values
Screen size: about 5,500 compounds; about 2,000 (36%) were called active. Another 18% or so got no clear call; they are omitted. This is one part of the list.
assay metric: normalized growth
Keep the answer to the number alone.

Item under review: CCCCc1nc(Cl)c(CO)n1Cc1ccc(-c2ccccc2-c2nn[nH]n2)cc1 . Reported normalized growth? 0.997

Find the recorded normalized growth belonging to COc1ccc2c(c1)[C@]13CCCC[C@H]1[C@H](C2)N(C)CC3 and report it. 0.992

What normalized growth value was documented for this molecule, O=C(CCc1ccc(O)cc1)c1c(O)cc(O)cc1O[C@@H]1O[C@H](CO)[C@@H](O)[C@H](O)[C@H]1O ? 0.998

What normalized growth value was documented for this molecule, CN[C@@H]1[C@@H](O[C@H]2O[C@H](CO)[C@@H](N)[C@H](O)[C@H]2O)O[C@H]2C[C@@H](N)[C@H](O[C@H]3[C@H](O)[C@@H](O)[C@H](N)C[C@@H]3N)O[C@@H]2[C@@H]1O ? 0.982

// returns reported normalized growth for input COc1cc(-c2coc3cc(O[C@@H]4O[C@H](CO)[C@@H](O)[C@H](O)[C@H]4O)c(OC)c(O)c3c2=O)cc(O)c1OC 1

Query (molecule): NC[C@H]1O[C@H](O[C@H]2[C@H](O)[C@@H](O[C@H]3O[C@H](CO)[C@@H](O)[C@H](N)[C@H]3O)[C@H](N)C[C@@H]2N)[C@H](N)C[C@@H]1O ; field requested: normalized growth 1
